Source of measurements: PubChem BioAssay AID248

# System: L1210 leukemia ip in BDF1 mice, survival T/C
# RUN DESCRIPTION: NCI In Vivo Anticancer Drug Screen. Data for tumor model L1210 Leukemia (intraperitoneal) in B6D2F1 (BDF1) mice
# RECORDED CONDITIONS: endpoint: mean survival time; dose: 100.0 mg/kg/injection; schedule: Q04DX003 (ip); vehicle: acetone; higher = longer survival
Inconclusive results and toxic doses are left out.
Collected T/C values appear next to each entry.

Use the examples below as a reference point.
COMPOUND: CCCCCCC(=O)/C=C/c1ccc(Cl)cc1Cl
TARGET UNDER TEST: L1210 leukemia ip in BDF1 mice, survival T/C
T/C: 86 % of control

COMPOUND: CC1OCC(C)(CO)CO1 (configuration not stated)
TARGET UNDER TEST: L1210 leukemia ip in BDF1 mice, survival T/C
T/C: 106 % of control

COMPOUND: COC(=O)c1sccc1C=O
TARGET UNDER TEST: L1210 leukemia ip in BDF1 mice, survival T/C
T/C: 98 % of control

COMPOUND: COC1=CCC2=C(CCO2)C1
TARGET UNDER TEST: L1210 leukemia ip in BDF1 mice, survival T/C
T/C: 95 % of control

Prompt: Identify T/C associated with the compound Cc1ccc(S(=O)(=O)C2=C(c3ccccc3)c3ccccc3CC2)cc1
Response: 100 % of control

Prompt: Identify T/C associated with the compound Cc1cc([N+](=O)[O-])ccc1NC(=O)c1ccccc1
Response: 94 % of control

Prompt: Identify T/C associated with the compound CC(=O)OC1=CC2(OC(C)=O)CCC1C1C(=O)OC(=O)C12 (configuration not stated)
Response: 93 % of control
